Data origin: ChEMBL document CHEMBL4376834

biological target: Serine/threonine-protein kinase B-raf (Homo sapiens, UniProt P15056, V600E); experiment: Inhibition of recombinant full length human B-Raf V599E mutant (416 to end residues) using myelin basic protein as substrate incubated for 40 mins in presence of [gamma-33ATP] by radiometric scintillation counting analysis
Sequence (P15056 2-766 V600E limits assumed): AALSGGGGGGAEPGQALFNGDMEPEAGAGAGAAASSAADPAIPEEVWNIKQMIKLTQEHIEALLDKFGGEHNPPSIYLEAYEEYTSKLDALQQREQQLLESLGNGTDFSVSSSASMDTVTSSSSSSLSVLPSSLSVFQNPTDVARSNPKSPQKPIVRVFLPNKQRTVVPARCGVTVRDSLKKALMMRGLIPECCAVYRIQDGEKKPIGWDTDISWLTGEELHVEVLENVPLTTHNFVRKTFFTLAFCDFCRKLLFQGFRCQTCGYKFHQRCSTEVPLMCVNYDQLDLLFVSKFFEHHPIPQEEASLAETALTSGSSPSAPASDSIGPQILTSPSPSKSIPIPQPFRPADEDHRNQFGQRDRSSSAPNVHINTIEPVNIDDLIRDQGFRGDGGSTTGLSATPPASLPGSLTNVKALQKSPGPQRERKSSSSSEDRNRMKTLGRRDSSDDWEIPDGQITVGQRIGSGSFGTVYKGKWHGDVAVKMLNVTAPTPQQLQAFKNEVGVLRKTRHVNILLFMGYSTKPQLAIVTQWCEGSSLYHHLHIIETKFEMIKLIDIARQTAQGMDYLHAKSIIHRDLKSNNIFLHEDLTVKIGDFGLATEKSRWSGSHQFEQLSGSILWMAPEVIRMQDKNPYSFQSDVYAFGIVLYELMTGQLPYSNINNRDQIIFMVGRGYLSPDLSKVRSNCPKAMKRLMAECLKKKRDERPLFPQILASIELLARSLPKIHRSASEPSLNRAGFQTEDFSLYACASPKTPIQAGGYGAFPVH

{"columns": ["record_smiles", "IC50"],
 "data": [
  ["CN(C)c1ccc(C(=O)Nc2cccc(NC(=O)COc3ccc4c(=O)ccoc4c3)c2)cc1", "> 10 µM"]
]}

* * *

biological target: LIM domain kinase 1 (Homo sapiens); test: Inhibition of recombinant human LIMK1 (285 to 638 residues) using cofilin as substrate after 40 mins in presence of [gamma-33ATP] by radiometric scintillation counting analysis

{"columns": ["record_smiles", "assayed_system", "IC50"],
 "data": [
  ["CN(C)c1ccc(C(=O)Nc2cccc(NC(=O)COc3ccc4c(=O)ccoc4c3)c2)cc1", "LIM domain kinase 1 (Homo sapiens)", "> 10 µM"]
]}

* * *

target: Tyrosine-protein kinase Fgr (Homo sapiens, UniProt P09769); assay: Inhibition of recombinant human FGR (2 to end residues) using poly(Glu, Tyr) 4:1 as substrate after 40 mins in presence of [gamma-33ATP] by radiometric scintillation counting analysis
Sequence (P09769 whole entry): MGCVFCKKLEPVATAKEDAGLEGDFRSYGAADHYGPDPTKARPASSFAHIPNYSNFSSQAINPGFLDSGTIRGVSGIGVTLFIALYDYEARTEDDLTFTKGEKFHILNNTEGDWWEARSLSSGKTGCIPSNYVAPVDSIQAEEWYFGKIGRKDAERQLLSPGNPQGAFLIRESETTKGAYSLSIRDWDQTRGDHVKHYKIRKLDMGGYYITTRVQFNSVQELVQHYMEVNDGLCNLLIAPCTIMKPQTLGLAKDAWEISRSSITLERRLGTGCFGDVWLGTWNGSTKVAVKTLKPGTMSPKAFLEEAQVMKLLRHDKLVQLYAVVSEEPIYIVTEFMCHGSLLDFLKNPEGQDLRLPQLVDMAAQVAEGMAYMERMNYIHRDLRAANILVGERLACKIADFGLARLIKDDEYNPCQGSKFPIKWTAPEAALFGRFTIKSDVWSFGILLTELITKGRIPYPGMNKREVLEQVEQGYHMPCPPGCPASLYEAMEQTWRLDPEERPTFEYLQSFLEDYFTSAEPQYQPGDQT
measurement_type: IC50

{"columns": ["record_smiles", "assayed_system", "measurement_type", "result"],
 "data": [
  ["CN(C)c1ccc(C(=O)Nc2cccc(NC(=O)COc3ccc4c(=O)ccoc4c3)c2)cc1", "Tyrosine-protein kinase Fgr (Homo sapiens, UniProt P09769)", "IC50", "> 10 µM"]
]}

* * *

target: Mast/stem cell growth factor receptor Kit (Homo sapiens, UniProt P10721); experiment: Inhibition of recombinant human C-Kit (544 to end residues) using poly (Glu,Tyr) 4:1 as substrate in presence of [gamma-33ATP] by radiometric scintillation counting analysis

{"columns": ["record_smiles", "IC50"],
 "data": [
  ["CN(C)c1ccc(C(=O)Nc2cccc(NC(=O)COc3ccc4c(=O)ccoc4c3)c2)cc1", "> 10 µM"]
]}

* * *

target: Mitogen-activated protein kinase kinase kinase kinase 4 (Homo sapiens); assay: Inhibition of recombinant human MAP4K4 (1 to 328 residues) using RLGRDKYKTLRQI as substrate incubated for 40 mins in presence of [gamma-33ATP by radiometric scintillation counting analysis
Sequence (O95819 whole entry, the tested form may be a part): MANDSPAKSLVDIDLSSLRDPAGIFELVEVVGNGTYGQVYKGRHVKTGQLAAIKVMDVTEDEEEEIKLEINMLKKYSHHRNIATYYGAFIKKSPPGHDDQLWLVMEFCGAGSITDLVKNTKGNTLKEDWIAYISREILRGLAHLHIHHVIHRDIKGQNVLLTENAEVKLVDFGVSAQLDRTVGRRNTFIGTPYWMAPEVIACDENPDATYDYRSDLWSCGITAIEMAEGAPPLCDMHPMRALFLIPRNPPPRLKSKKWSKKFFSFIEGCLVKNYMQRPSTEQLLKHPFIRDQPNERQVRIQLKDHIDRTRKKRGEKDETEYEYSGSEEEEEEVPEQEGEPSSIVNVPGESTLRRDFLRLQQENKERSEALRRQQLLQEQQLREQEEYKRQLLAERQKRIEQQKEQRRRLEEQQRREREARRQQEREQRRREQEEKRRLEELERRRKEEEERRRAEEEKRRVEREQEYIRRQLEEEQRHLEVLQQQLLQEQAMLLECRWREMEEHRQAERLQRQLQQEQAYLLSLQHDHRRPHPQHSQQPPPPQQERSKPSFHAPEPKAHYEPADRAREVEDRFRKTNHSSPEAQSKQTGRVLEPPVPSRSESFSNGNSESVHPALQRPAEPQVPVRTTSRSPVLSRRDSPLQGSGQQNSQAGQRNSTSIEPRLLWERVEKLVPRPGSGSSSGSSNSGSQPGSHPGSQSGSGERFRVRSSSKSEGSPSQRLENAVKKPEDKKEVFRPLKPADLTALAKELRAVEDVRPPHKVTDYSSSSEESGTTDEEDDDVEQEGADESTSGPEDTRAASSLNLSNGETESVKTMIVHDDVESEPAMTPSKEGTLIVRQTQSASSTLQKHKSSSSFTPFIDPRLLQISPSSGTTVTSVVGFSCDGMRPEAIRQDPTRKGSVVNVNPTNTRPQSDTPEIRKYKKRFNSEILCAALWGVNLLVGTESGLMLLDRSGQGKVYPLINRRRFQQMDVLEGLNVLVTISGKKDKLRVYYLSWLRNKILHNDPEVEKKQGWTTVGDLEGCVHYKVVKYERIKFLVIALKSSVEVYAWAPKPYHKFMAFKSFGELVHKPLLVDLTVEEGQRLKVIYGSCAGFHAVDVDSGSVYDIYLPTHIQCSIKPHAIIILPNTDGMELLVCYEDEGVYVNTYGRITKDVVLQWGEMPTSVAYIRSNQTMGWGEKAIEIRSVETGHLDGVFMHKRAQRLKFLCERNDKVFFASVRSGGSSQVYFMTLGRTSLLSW

{"columns": ["record_smiles", "IC50"],
 "data": [
  ["CN(C)c1ccc(C(=O)Nc2cccc(NC(=O)COc3ccc4c(=O)ccoc4c3)c2)cc1", "> 10 µM"]
]}

* * *

biological target: Ribosomal protein S6 kinase alpha-3 (Homo sapiens, UniProt P51812); test: Inhibition of recombinant human Rsk2 (2 to end residues) using KKKNRTLSVA as substrate incubated for 40 mins in presence of [gamma33P]ATP by radiometric scintillation counting analysis
Sequence (P51812 whole entry): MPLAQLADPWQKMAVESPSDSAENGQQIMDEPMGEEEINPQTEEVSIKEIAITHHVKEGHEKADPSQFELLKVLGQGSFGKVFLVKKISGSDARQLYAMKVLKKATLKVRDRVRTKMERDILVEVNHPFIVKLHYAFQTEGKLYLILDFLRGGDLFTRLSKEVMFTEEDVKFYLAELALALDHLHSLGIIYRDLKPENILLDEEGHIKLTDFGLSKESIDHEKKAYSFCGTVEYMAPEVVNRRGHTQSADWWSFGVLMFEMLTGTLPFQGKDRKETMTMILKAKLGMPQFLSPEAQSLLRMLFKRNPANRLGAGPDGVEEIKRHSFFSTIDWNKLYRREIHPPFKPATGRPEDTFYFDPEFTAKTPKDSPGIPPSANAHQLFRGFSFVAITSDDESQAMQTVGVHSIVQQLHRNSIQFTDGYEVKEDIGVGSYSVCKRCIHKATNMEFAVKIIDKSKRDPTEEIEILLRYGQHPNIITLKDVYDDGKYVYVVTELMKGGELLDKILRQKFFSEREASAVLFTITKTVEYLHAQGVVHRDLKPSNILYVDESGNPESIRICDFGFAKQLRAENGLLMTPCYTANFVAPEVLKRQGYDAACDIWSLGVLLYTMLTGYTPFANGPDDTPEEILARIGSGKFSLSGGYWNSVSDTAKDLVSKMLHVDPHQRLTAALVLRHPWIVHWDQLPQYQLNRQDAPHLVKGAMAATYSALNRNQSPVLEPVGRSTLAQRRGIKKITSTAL
pIC50: −log10 of the molar value.
measurement_type: pIC50

{"columns": ["record_smiles", "measurement_type", "result"],
 "data": [
  ["CN(C)c1ccc(C(=O)Nc2cccc(NC(=O)COc3ccc4c(=O)ccoc4c3)c2)cc1", "pIC50", "< 5.00"]
]}

* * *

test: Half life in human liver microsomes measured upto 45 mins in presence of NADPH by LC-MS analysis; type: ADME, Microsome
measurement_type: half-life (min)

{"columns": ["record_smiles", "measurement_type", "result"],
 "data": [
  ["CN(C)c1ccc(C(=O)Nc2cccc(NC(=O)COc3ccc4c(=O)ccoc4c3)c2)cc1", "half-life", 8.05]
]}

* * *

molecular target: Eukaryotic translation initiation factor 2-alpha kinase 1 (Homo sapiens); assay: Inhibition of human recombinant HRI (140 to end residues) using RSRSRSRSRSRSR as substrate after 120 mins by [gamma-33ATP] radiometric assay
Sequence (Q9BQI3 whole entry): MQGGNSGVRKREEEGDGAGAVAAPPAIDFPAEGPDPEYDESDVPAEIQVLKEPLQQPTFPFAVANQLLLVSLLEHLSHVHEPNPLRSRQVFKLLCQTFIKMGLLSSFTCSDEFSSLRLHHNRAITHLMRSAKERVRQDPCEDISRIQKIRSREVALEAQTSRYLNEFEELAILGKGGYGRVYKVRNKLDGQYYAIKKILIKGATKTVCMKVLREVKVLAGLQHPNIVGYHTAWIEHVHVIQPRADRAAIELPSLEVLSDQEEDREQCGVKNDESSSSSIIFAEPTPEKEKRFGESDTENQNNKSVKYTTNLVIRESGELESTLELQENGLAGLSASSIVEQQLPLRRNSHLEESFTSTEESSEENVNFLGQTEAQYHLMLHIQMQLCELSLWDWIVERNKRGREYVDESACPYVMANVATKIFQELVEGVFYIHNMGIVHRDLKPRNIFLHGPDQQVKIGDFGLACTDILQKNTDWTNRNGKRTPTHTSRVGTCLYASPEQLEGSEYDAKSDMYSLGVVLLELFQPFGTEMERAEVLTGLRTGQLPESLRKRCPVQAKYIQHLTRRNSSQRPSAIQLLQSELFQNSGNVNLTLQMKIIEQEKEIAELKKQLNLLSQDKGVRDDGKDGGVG
pIC50: −log10 of the molar value.
measurement_type: pIC50

{"columns": ["record_smiles", "measurement_type", "result"],
 "data": [
  ["CN(C)c1ccc(C(=O)Nc2cccc(NC(=O)COc3ccc4c(=O)ccoc4c3)c2)cc1", "pIC50", "< 5.00"]
]}

* * *

target: MAP kinase-activated protein kinase 3 (Homo sapiens, UniProt Q16644); test: Inhibition of recombinant human MAPKAPK3 (2 to end residues) using KKLNRTLSVA as substrate incubated for 40 mins in presence of [gamma-33ATP by radiometric scintillation counting analysis
Sequence (Q16644 whole entry): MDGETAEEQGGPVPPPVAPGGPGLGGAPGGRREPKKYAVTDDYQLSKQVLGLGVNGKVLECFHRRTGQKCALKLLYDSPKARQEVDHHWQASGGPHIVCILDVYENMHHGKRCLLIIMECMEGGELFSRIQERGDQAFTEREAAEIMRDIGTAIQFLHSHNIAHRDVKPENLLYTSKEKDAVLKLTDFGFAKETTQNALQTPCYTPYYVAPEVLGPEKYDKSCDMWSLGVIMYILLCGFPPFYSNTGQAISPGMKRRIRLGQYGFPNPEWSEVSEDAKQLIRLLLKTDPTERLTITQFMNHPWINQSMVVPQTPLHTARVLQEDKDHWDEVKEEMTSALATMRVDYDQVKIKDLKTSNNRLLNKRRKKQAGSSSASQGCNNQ
pIC50: −log10 of the molar value.

{"columns": ["record_smiles", "pIC50"],
 "data": [
  ["CN(C)c1ccc(C(=O)Nc2cccc(NC(=O)COc3ccc4c(=O)ccoc4c3)c2)cc1", "< 5.00"]
]}

* * *

Molecular target: Serine/threonine-protein kinase D3 (Homo sapiens, UniProt O94806)
Sequence (O94806 whole entry): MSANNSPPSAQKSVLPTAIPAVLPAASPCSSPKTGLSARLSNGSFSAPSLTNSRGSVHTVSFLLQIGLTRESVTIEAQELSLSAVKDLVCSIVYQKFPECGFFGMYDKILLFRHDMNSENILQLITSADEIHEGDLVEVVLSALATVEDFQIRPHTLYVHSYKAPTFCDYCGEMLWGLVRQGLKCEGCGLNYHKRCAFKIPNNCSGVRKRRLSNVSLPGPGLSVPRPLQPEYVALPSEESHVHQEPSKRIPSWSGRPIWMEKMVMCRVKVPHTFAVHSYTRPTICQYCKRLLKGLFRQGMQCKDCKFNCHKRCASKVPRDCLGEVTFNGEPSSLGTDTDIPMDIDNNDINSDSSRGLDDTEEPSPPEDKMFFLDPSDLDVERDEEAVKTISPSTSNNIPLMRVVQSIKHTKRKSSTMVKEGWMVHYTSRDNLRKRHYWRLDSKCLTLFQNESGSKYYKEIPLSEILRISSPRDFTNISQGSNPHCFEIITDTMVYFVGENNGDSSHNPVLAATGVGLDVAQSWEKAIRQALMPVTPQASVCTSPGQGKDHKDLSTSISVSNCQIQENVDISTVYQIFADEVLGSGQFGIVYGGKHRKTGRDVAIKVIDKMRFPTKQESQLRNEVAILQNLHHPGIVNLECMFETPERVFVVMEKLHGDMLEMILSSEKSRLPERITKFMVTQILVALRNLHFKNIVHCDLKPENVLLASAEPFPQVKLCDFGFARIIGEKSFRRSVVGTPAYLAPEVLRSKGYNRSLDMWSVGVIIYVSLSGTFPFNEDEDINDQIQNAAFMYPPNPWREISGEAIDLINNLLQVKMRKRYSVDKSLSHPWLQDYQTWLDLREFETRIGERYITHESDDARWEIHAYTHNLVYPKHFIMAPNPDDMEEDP
Test: Inhibition of recombinant full-length human PKD3 using KKLRRTLSVA as substrate incubated for 40 mins in presence of [gamma33P]ATP by radiometric scintillation counting analysis

{"columns": ["record_smiles", "IC50"],
 "data": [
  ["CN(C)c1ccc(C(=O)Nc2cccc(NC(=O)COc3ccc4c(=O)ccoc4c3)c2)cc1", "> 10 µM"]
]}

* * *

target: cAMP-dependent protein kinase catalytic subunit beta (Homo sapiens, UniProt P22694); assay: Inhibition of recombinant full length human PKAcbeta using KEAKEKRQEQIAKR as substrate incubated for 40 mins in presence of [gamma33P]ATP by radiometric scintillation counting analysis

{"columns": ["record_smiles", "IC50"],
 "data": [
  ["CN(C)c1ccc(C(=O)Nc2cccc(NC(=O)COc3ccc4c(=O)ccoc4c3)c2)cc1", "> 10 µM"]
]}

* * *

target: Serine/threonine-protein kinase VRK2 (Homo sapiens, UniProt Q86Y07); assay: Inhibition of recombinant human VRK2 (1 to 336 residues) using casein as substrate incubated for 40 mins in presence of [gamma33P]ATP by radiometric scintillation counting analysis
Sequence (Q86Y07 whole entry, the tested form may be a part): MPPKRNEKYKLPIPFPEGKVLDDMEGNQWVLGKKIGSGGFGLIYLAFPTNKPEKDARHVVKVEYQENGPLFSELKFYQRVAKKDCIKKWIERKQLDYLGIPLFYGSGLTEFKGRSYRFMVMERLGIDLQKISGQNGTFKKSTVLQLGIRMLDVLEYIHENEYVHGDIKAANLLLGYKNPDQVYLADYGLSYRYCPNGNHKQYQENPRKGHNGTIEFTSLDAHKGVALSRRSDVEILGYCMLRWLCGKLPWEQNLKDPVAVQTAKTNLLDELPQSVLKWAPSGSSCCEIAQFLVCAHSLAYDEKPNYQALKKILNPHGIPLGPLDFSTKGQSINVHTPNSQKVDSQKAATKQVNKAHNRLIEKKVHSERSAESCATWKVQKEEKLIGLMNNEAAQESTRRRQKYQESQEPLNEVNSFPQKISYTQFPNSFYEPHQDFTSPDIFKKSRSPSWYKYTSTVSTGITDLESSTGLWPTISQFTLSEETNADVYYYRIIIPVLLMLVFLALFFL

{"columns": ["record_smiles", "IC50"],
 "data": [
  ["CN(C)c1ccc(C(=O)Nc2cccc(NC(=O)COc3ccc4c(=O)ccoc4c3)c2)cc1", "> 10 µM"]
]}

* * *

molecular target: Serine/threonine-protein kinase Nek9 (Homo sapiens); test: Inhibition of recombinant human NEK9 (1 to 324 residues) using myelin basic protein as substrate measured after 40 mins in presence of [gamma33P]ATP by radiometric scintillation counting analysis

{"columns": ["record_smiles", "IC50"],
 "data": [
  ["CN(C)c1ccc(C(=O)Nc2cccc(NC(=O)COc3ccc4c(=O)ccoc4c3)c2)cc1", "> 10 µM"]
]}

* * *

target: Rho-associated protein kinase 1 (Homo sapiens, UniProt Q13464); assay: Inhibition of recombinant human ROCK1 (17 to 535 residues) using […] as substrate incubated for 40 mins in presence of [gamma-33P]ATP and 10 uM ATP by radiometric scintillation counting analysis
pIC50: −log10 of the molar value.
// class assignment uses pIC50 with these ranges: bucket 1 (below 6), bucket 2 (6 to below 7), bucket 3 (7 or more)

{"columns": ["record_smiles", "label"],
 "data": [
  ["COc1cc(OCC(=O)Nc2cccc(NC(=O)c3ccc(N(C)C)cc3)c2)ccc1C=O", "bucket 1"],
  ["CC(=O)Nc1cccc(NC(=O)COc2ccc3c(=O)ccoc3c2)c1", "bucket 1"],
  ["CCc1ccc(C(=O)Nc2cccc(NC(=O)COc3ccc4c(=O)ccoc4c3)c2)cc1", "bucket 2"],
  ["O=C(COc1ccc2c(=O)ccoc2c1)Nc1cccc(NC(=O)c2cccc([N+](=O)[O-])c2)c1", "bucket 2"],
  ["CN(C)c1ccc(C(=O)Nc2cc(F)cc(NC(=O)COc3ccc4c(=O)ccoc4c3)c2)cc1", "bucket 3"]
]}
